Collected logP values appear next to each entry.
Experiment: logP (acidic) / lgP (HCOOH), phys. data
Assay type: physicochemical
Details: Table I-1; acidic; read-out: Phys. data = logP (acidic)
Measure name: logP

> print(dat)
                                    compound  measure.name  numeric.result
 1  S=C(NCCc1cccc(Cl)c1)N1CCOC1=N[C@H]1CCc2ccccc21 [1-39]          logP            5.19
 2  CC(NC(=S)N1CCOC1=NC1CCc2ccccc21)c1ccc(F)cc1 (stereo not drawn) [1-36]          logP            4.91
 3  C=CCNC(=S)N1CCOC1=NC1CCc2ccccc21 (stereo not drawn) [1-47]          logP            3.85
 4  S=C(NCc1cccc(Cl)c1)N1CCOC1=N[C@H]1CCc2ccccc21 [1-20]          logP            4.97
 5  S=C(NCc1ccc(Cl)cc1)N1CCOC1=N[C@H]1CCc2ccccc21 [1-19]          logP            5.02
 6  CC(C)=CCNC(=S)N1CCOC1=N[C@H]1CCc2ccccc21 [1-72]          logP            4.78
 7  S=C(NCc1ccc2c(c1)OCO2)N1CCOC1=N[C@H]1CCc2ccccc21 [1-22]          logP            4.11
 8  S=C(NCc1ccco1)N1CCOC1=N[C@H]1CCc2ccccc21 [1-45]          logP            4.17
 9  COc1ccc(CNC(=S)N2CCOC2=N[C@H]2CCc3ccccc32)cc1OC [1-26]          logP             3.8
10  S=C(NCc1ccccc1)N1CCOC1=N[C@H]1CCc2ccccc21 [1-2]          logP            4.46
11  C=CCNC(=O)N1CCOC1=NC1CCc2ccccc21 (stereo not drawn) [1-48]          logP            3.85
12  COc1ccc(CNC(=S)N2CCOC2=N[C@H]2CCc3ccccc32)cc1 [1-25]          logP            4.28
13  CC(NC(=S)N1CCOC1=N[C@H]1CCc2ccccc21)c1ccccc1 (stereo partly drawn) [1-29]          logP            4.85
14  Fc1ccc(CNC(=S)N2CCOC2=N[C@H]2CCc3ccccc32)cc1 [1-24]          logP            4.51
15  S=C(NCc1ccccc1Cl)N1CCOC1=N[C@H]1CCc2ccccc21 [1-21]          logP            4.97
16  S=C(NCCc1ccc(Cl)cc1)N1CCOC1=N[C@H]1CCc2ccccc21 [1-38]          logP            5.25
17  CC(NC(=S)N1CCOC1=N[C@H]1CCc2ccccc21)c1ccccc1Cl (stereo partly drawn) [1-32]          logP            5.31
18  S=C(NCc1ccc(Cl)nc1)N1CCOC1=N[C@H]1CCc2ccccc21 [1-40]          logP            4.04
19  S=C(NCc1ccc(Cl)cc1Cl)N1CCOC1=N[C@H]1CCc2ccccc21 [1-27]          logP            5.65
20  S=C(NCc1ccncc1)N1CCOC1=N[C@H]1CCc2ccccc21 [1-43]          logP            1.87
21  S=C(NCc1cccnc1)N1CCOC1=N[C@H]1CCc2ccccc21 [1-44]          logP            2.17

Where do the numbers come from? From patent EP1982595A1.
